- measurement.target: NLRP3 (Homo sapiens)
- Sequence (Q96P20 whole entry): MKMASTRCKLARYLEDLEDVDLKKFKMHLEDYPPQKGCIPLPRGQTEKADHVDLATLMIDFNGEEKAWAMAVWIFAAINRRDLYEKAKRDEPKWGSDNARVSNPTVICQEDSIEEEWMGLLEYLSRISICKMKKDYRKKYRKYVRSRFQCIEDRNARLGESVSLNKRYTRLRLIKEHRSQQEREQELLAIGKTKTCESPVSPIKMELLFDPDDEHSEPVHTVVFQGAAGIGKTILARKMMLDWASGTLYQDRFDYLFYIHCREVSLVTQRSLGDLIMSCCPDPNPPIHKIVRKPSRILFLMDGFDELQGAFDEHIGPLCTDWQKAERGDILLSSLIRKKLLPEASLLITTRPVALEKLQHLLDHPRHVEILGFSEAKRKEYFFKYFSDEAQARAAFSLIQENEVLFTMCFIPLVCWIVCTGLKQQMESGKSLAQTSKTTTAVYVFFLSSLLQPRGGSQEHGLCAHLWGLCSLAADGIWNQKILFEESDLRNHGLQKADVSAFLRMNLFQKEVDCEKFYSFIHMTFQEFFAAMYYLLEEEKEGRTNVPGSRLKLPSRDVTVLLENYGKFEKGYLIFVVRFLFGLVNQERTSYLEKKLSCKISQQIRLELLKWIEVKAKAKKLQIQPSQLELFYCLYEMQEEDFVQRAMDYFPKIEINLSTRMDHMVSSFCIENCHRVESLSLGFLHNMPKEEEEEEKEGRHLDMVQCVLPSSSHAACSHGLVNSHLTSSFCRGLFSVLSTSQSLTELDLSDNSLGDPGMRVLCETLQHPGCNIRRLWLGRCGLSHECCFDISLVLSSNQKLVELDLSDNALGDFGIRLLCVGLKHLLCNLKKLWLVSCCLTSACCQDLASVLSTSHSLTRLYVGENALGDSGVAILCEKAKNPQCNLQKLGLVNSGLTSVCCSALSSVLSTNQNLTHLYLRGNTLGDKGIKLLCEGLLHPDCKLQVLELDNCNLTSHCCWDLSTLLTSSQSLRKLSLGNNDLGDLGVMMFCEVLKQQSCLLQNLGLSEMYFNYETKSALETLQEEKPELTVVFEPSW
- test.protocol: THP-1 cells pyroptosis assay (LPS + nigericin, resazurin readout; THP IC50)
- Assay type: cell-based
- Design: Seed THP-1 cells (25,000 cells/well) containing 1.0 μg/ml LPS in 40 μl of RPMI medium; host or cells: THP-1 cells
pIC50: −log10 of the molar value. Where a name gives a salt, the structure may show the parent alone.
property.name: pIC50

Completed entries (count: 3):
>>> value_measured("O=C(Nc1c(-c2ccnc(OC(F)F)c2)ccc2c1CCO2)NS(=O)(=O)c1ccn(C2CC2)n1 [Example 277, sodium salt]")
"≥ 6.30"
>>> value_measured("COc1cc(-c2ccc3c(c2NC(=O)NS(=O)(=O)c2cn(C(C)C)cn2)CCC3)ccn1")
"≥ 6.30"
>>> value_measured("CCN1CCC(S(=O)(=O)NC(=O)Nc2c(-c3ccnc(C#N)c3)ccc3c2CCC3)CC1 [Example 99, potassium salt]")
"≥ 5.00"

Form field, pIC50 with NLRP3 (Homo sapiens), item CC(C)n1ccc(S(=O)(=O)NC(=O)Nc2c(-c3cccnc3)cc(F)c3c2CCC3)n1 : ≥ 6.30

Bench note, NLRP3 (Homo sapiens): entry CCC(c1cc(S(=O)(=O)NC(=O)Nc2c(-c3ccnc(OC)c3)ccc3c2CCC3)nn1C(C)C)N(C)C (stereo not drawn) , its pIC50 = ≥ 6.30

Result for COc1cc(-c2ccc3c(c2NC(=O)NS(=O)(=O)c2ccn(C(C)C)n2)CCC3)cc(C)n1 [Example 238, sodium salt] , tested on NLRP3 (Homo sapiens), pIC50: ≥ 5.30

Record for COc1cc(-c2cc(F)cc(C(C)C)c2NC(=O)NS(=O)(=O)c2ccc(=O)n(C(C)C)c2)ccn1 under target or system NLRP3 (Homo sapiens): pIC50 reported as ≥ 6.30

Value (pIC50, NLRP3 (Homo sapiens)) for record COc1cc(-c2ccc3c(c2NC(=O)NS(=O)(=O)c2cc(C4(OC)COC4)n(C)n2)CCC3)ccn1 = ≥ 6.30

Item COc1cc(-c2ccc3c(c2NC(=O)NS(=O)(=O)c2ccn(C(C)(C)CN4CC(F)(F)C4)n2)CCC3)ccn1 was tested on NLRP3 (Homo sapiens); the reported pIC50 is ≥ 6.30

Short answer on NLRP3 (Homo sapiens) for N#Cc1cc(-c2ccc3c(c2NC(=O)NS(=O)(=O)c2ccn(C4CCC4)n2)CCC3)ccn1 , pIC50: ≥ 6.30

Query CC(C)c1cc(F)cc(-c2cccnc2)c1NC(=O)NS(=O)(=O)c1ccn(CCN(C)C)n1 on NLRP3 (Homo sapiens); pIC50 returned: ≥ 6.00

NLRP3 (Homo sapiens) data for CCn1nc(S(=O)(=O)NC(=O)Nc2c(-c3ccnc(OC)c3)ccc3c2CCC3)cc1CN(C)C ; its pIC50: ≥ 6.30
